- Measured On: PRPF4B (human)
- Test: KINOMEscan competition binding
- Study Conditions: compound 10.0 µM
Measured kinase still bound, per cent of control values are reported for all entries that follow.

{"columns": ["Structure As Smiles", "kinase still bound, per cent of control"],
 "data": [
  ["CCCS(=O)(=O)Nc1ccc(F)c(C(=O)c2c[nH]c3ncc(Cl)cc23)c1F", "82%"],
  ["N#C/C(=C1/Nc2ccccc2S1)c1ccnc(NCCc2cccnc2)n1", "79%"],
  ["CCc1nc(-c2cccc(C)c2)c(-c2ccnc(NC(=O)c3ccccc3)c2)s1", "80%"],
  ["CC(=O)c1c(C)c2cnc(Nc3ccc(N4CCNCC4)cn3)nc2n(C2CCCC2)c1=O", "78%"]
]}

Sourced from the kinase profiling compilation of Christmann-Franck et al. (2016)
